src = patent US20180185504A1

Give measured FACS Cell Binding (Fold Above Background) for each item. Keep answers brief.
Assayed Target: T1, mouse PRLR construct with an HA tag on HEK293/mPRLR cells (mouse, UniProt Q08501 20-608)
T1 construct: whole, on cells; stably transfected into HEK293
T1 sequence (looked up): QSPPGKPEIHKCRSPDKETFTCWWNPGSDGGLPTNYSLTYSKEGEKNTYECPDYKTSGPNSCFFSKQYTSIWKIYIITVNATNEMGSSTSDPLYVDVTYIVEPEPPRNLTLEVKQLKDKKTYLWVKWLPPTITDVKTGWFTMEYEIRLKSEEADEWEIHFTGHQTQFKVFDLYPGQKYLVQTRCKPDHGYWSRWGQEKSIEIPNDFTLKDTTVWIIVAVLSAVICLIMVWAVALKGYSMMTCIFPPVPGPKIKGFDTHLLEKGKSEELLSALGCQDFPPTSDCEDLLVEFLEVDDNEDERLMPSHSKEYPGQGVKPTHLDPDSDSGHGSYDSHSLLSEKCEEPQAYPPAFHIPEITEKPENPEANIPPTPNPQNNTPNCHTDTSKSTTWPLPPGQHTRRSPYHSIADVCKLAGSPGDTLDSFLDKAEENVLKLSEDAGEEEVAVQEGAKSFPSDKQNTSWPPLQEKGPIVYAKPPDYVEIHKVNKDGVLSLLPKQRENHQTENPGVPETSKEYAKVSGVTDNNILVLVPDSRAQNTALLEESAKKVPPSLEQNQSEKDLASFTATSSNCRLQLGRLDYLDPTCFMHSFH
Experiment Description: FACS on HEK293/mPRLR cells
Numbers only, in fold.

H1H6785P (antibody, human IgG1, V domains shown, human IgG1 Fc (H1H)) VH: EVQLVESGGGLVQPGGSLRLSCAASGFTFSSYEMNWVRQAPGKGLEWISYISSRGGTIYYADSIKGRFTIYRDNARNSLYLQMNSLRAEDTAIYYCARLSGVDIFDIWGQGTMVTVSS VL: DIQMTQSPSSLSASVGDRVTITCRASQGISNYLAWYQQKPGKVPKLLIYFASTLQSGVPSRFSGGGSGTDFTLTISSLQPEDVATYYCQRYNSAPLTFGGGTKVEIK ... 2
H1H6792P (antibody, human IgG1, V domains shown, human IgG1 Fc (H1H)) VH: EVQLVESGGGLVQPGRSLRLSCAASGFTLDDHAVHWVRQAPGKGLEWVSGISWNSVYIDYADSVKGRFTIFRDNAKNSLYLQMNSLRAEDTAFYYCARDIEGARDYWGQGTLVTVSS VL: DIQMTQSPSSLSASVGDRVTITCRASQGIRNDLGWYQQKPGKAPKRLIYAASSLQSGVPSRFSGSGYGTEFTLTISSLQPEDFAPYYCLQHNSYPLTFGGGTKVEIK ... 3
H1H6804P (antibody, human IgG1, V domains shown, human IgG1 Fc (H1H)) VH: QVTLKESGPVLVKPTQTLSLTCTVSGFSLSDAGMGVSWIRQPPGKALEWLAHIFSNDGKSYSTSLKSRLTISKDTSKRQVVLTMTNMDPVDTATYYCARIRTGTYSLYLDYWGQGTLVTVSS VL: DIQMTQSPSSLSASVGDRVTITCRASQSINSYLNWYQQKPGKAPKLLLYFASSLQSGVPSRFSGSGSGTDFTLTISSLQPEDFASYYCQESYSTPWTFGQGTKVEIK ... 1
H1H6953N (antibody, human IgG1, V domains shown, also called H1M6953N) VH: EVQLLESGGGLVQPGGTLRLSCAASGFTFSAYAMSWVRQAPGKGLEWVSSINVRAGDTYYADSVKGRFTISRDNSKNTLFLLMNSLRAEDTAAYYCAKARYSSNWGFDFWGQGTLVTVSS VL: DIVMTQSPDSLTVSLGARTTINCQSSQTILHSSNNHNYLAWYQQKPGLPPKLLIYWSSTRESGVPDRFSGSGSGTDFTLTISSLQAEDVAIYYCQQYSNTPYTFGQGTKLEIN ... 2

Pending binder:
Q: Value lookup for FACS Cell Binding (Fold Above Background); key = H1H6803P (antibody, human IgG1, V domains shown, human IgG1 Fc (H1H)) VH: EVQLVESGGGVVRPGGSLRLSCAASGFKFDDYGMTWVRHVPGKGLEWVSGINWNGGRTGYTDSVKGRFTISRDNAKNSLYLQMNSLRAEDTALYHCAGARRDAFDIWGQGTMVTVSS VL: DIQMTQSPSSLSASIGDRVTITCRASQNIIKYLNWYQQNAGKAPKLLIYTASSLQSGVPSRFSGSGSGTDFTLTISSLQPEDFATYYCQQSSSSPYTFGQGTKLEIK
Result: 1
